Value source: patent US9989543B2

- method: Olmesartan blood concentration/AUC after 7-day versus single-day dosing
- Assay type: in vivo, Korean healthy males
- run-conditions: male, human, blood, oral, Time 24 hrs; drug taken only one day; read-out: Blood concentration (ng/mL)/Non-Compliance-1X
quantity-kind: concentration at 24 h (ng/mL)
The reply should be a number in ng/mL, with the unit left off.

Which measured concentration at 24 h value corresponds to CCCc1nc(C(C)(C)O)c(C(=O)O)n1Cc1ccc(-c2ccccc2-c2nnn[nH]2)cc1 [olmesartan] ?
41.1

* * *

- method: Olmesartan blood concentration/AUC after 7-day versus single-day dosing
- Assay type: in vivo, Korean healthy males
- run-conditions: male, human, blood, oral, 40 mg, Time 4 hrs; dosing every 24 hours for 7 days; read-out: Blood concentration (ng/mL)/Compliance-7X
- From the text: […]
quantity-kind: concentration at 4 h (ng/mL)
The reply should be a number in ng/mL, with the unit left off.

Which measured concentration at 4 h value corresponds to CCCc1nc(C(C)(C)O)c(C(=O)O)n1Cc1ccc(-c2ccccc2-c2nnn[nH]2)cc1 ?
911
